test.system: dopaminergic D3 receptor (Homo sapiens)
Sequence (P35462 whole entry): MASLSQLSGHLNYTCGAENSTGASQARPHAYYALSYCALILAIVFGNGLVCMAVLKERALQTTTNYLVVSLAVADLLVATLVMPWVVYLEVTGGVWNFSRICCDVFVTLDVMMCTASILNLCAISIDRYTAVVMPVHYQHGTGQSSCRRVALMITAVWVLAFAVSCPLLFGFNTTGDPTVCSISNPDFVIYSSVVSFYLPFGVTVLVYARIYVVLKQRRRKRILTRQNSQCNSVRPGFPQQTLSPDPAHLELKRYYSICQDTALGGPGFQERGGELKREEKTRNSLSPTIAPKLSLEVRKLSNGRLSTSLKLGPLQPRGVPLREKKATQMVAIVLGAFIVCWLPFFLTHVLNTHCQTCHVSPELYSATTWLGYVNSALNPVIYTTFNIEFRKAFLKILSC
protocol.description: Binding assay D3 (h), [3H]methyl-spiperone, CHO cells
Set-up: expressed in transfected cells; host or cells: CHO cells
applied.conditions: read-out: D3 [%]
quantity.name: inhibition at 1 µM

[[record]]
smiles = "O=S(=O)(NCCCCN1CCN(c2noc3ccccc23)CC1)c1cc2ccc(Cl)cc2s1"
test_system = "dopaminergic D3 receptor (Homo sapiens)"
measured = "102%"

[[record]]
smiles = "Cc1c(S(=O)(=O)NCCCCN2CCC(c3noc4cc(F)ccc34)CC2)sc2ccc(Cl)cc12"
test_system = "dopaminergic D3 receptor (Homo sapiens)"
measured = "97%"

[[record]]
smiles = "Cc1c(S(=O)(=O)NCCCCN2CCN(c3noc4ccccc34)CC2)sc2ccc(F)cc12"
test_system = "dopaminergic D3 receptor (Homo sapiens)"
measured = "97%"

[[record]]
smiles = "O=S(=O)(NCCCN1CCC(c2noc3cc(F)ccc23)CC1)c1cccc(F)c1"
test_system = "dopaminergic D3 receptor (Homo sapiens)"
measured = "98%"

[[record]]
smiles = "O=S(=O)(NCCCCN1CCN(c2noc3ccccc23)CC1)c1ccc2cc(Cl)ccc2c1"
test_system = "dopaminergic D3 receptor (Homo sapiens)"
measured = "96%"

[[record]]
smiles = "O=S(=O)(NCCCCN1CCN(c2cccc3c2OCCO3)CC1)c1csc2ccccc12"
test_system = "dopaminergic D3 receptor (Homo sapiens)"
measured = "88%"

[[record]]
smiles = "O=S(=O)(NCCCN1CCC(c2noc3cc(F)ccc23)CC1)c1ccsc1"
test_system = "dopaminergic D3 receptor (Homo sapiens)"
measured = "101%"

[[record]]
smiles = "O=S(=O)(NCCCN1CCN(c2nsc3ccccc23)CC1)c1ccc2c(c1)OCO2"
test_system = "dopaminergic D3 receptor (Homo sapiens)"
measured = "100%"

[[record]]
smiles = "O=S(=O)(NCCCCN1CCN(c2nsc3ccccc23)CC1)c1ccc(Cl)c(Cl)c1"
test_system = "dopaminergic D3 receptor (Homo sapiens)"
measured = "92%"

[[record]]
smiles = "O=S(=O)(NCCCCN1CCN(c2cccc3c2OCCO3)CC1)c1cccc(Br)c1"
test_system = "dopaminergic D3 receptor (Homo sapiens)"
measured = "85%"

[[record]]
smiles = "O=S(=O)(NCCCCN1CCC(c2noc3cc(F)ccc23)CC1)c1ccc(Cl)cc1"
test_system = "dopaminergic D3 receptor (Homo sapiens)"
measured = "100%"

[[record]]
smiles = "Cn1ccc2cc(S(=O)(=O)NCCCN3CCC(c4noc5cc(F)ccc45)CC3)ccc21"
test_system = "dopaminergic D3 receptor (Homo sapiens)"
measured = "101%"


---

Test system: adrenergic α1 receptor
protocol.description: Binding assay α1 (non-selective), [3H]prazosin, rat cerebral cortex
applied.conditions: percent inhibition of control specific binding; compounds tested at 1×10^−6 M
quantity.name: α1 [%]

[[record]]
smiles = "O=S(=O)(NCCCCN1CCN(c2noc3ccccc23)CC1)c1ccc(Cl)cc1"
test_system = "adrenergic α1 receptor"
measured = "101%"

[[record]]
smiles = "O=S(=O)(NCCCCN1CCN(c2cccc3c2OCCO3)CC1)c1cccc(Cl)c1"
test_system = "adrenergic α1 receptor"
measured = "73%"

[[record]]
smiles = "O=S(=O)(NCCCCN1CCN(c2cccc3c2OCCO3)CC1)c1ccc2cc(Cl)ccc2c1"
test_system = "adrenergic α1 receptor"
measured = "86%"

[[record]]
smiles = "O=S(=O)(NCCN1CCN(c2nsc3ccccc23)CC1)c1ccc2ccccc2c1"
test_system = "adrenergic α1 receptor"
measured = "79%"

[[record]]
smiles = "O=S(=O)(NCCCN1CCN(c2cccc3c2OCCO3)CC1)c1cccc(Cl)c1"
test_system = "adrenergic α1 receptor"
measured = "87%"

[[record]]
smiles = "O=S(=O)(NCCCN1CCC(c2noc3cc(F)ccc23)CC1)c1cccs1"
test_system = "adrenergic α1 receptor"
measured = "108%"

[[record]]
smiles = "O=S(=O)(NCCCN1CCN(c2cccc3c2OCCO3)CC1)c1cccc(Br)c1"
test_system = "adrenergic α1 receptor"
measured = "90%"

[[record]]
smiles = "O=S(=O)(NCCCCN1CCN(c2nsc3ccccc23)CC1)c1ccc(Cl)cc1"
test_system = "adrenergic α1 receptor"
measured = "92%"

[[record]]
smiles = "O=S(=O)(NCCCCN1CCN(c2cccc3[nH]ccc23)CC1)c1cccc(F)c1"
test_system = "adrenergic α1 receptor"
measured = "92%"

[[record]]
smiles = "O=S(=O)(NCCCCN1CCC(c2noc3cc(F)ccc23)CC1)c1cc2ccccc2s1"
test_system = "adrenergic α1 receptor"
measured = "100%"

[[record]]
smiles = "O=S(=O)(NCCCN1CCC(c2noc3cc(F)ccc23)CC1)c1ccc2cn[nH]c2c1"
test_system = "adrenergic α1 receptor"
measured = "99%"

[[record]]
smiles = "O=S(=O)(NCCCCN1CCN(c2noc3ccccc23)CC1)c1cccc(C(F)(F)F)c1"
test_system = "adrenergic α1 receptor"
measured = "99%"

[[record]]
smiles = "Cc1cccc(S(=O)(=O)NCCN2CCN(c3nsc4ccccc34)CC2)c1"
test_system = "adrenergic α1 receptor"
measured = "85%"

[[record]]
smiles = "O=S(=O)(NCCCCN1CCN(c2nsc3ccccc23)CC1)c1ccc(F)c(Cl)c1"
test_system = "adrenergic α1 receptor"
measured = "99%"

[[record]]
smiles = "O=S(=O)(NCCCN1CCN(c2cccc3c2OCCO3)CC1)c1csc2ccccc12"
test_system = "adrenergic α1 receptor"
measured = "81%"

[[record]]
smiles = "O=S(=O)(NCCCN1CCN(c2nsc3ccccc23)CC1)c1cccs1"
test_system = "adrenergic α1 receptor"
measured = "−90%"

[[record]]
smiles = "Cc1[nH]c2ccc(Cl)cc2c1C1=CCN(CCNS(=O)(=O)c2cccc3ccccc23)CC1"
test_system = "adrenergic α1 receptor"
measured = "1%"

[[record]]
smiles = "O=S(=O)(NCCCCN1CCN(c2cccc3[nH]ccc23)CC1)c1ccc(F)c(F)c1"
test_system = "adrenergic α1 receptor"
measured = "99%"

[[record]]
smiles = "Cc1[nH]c2ccc(Cl)cc2c1C1=CCN(CCCNS(=O)(=O)c2ccc(F)cc2)CC1"
test_system = "adrenergic α1 receptor"
measured = "41%"

[[record]]
smiles = "N#Cc1cccc(S(=O)(=O)NCCCCN2CCN(c3nsc4ccccc34)CC2)c1"
test_system = "adrenergic α1 receptor"
measured = "98%"

[[record]]
smiles = "O=S(=O)(NCCCCN1CCN(c2noc3ccccc23)CC1)c1ccc2cc(Cl)ccc2c1"
test_system = "adrenergic α1 receptor"
measured = "88%"

